biological target: Protein kinase C beta type (Homo sapiens, UniProt P05771); test: Inhibition of recombinant PKCbeta1 by IMAP assay
Sequence (P05771 whole entry): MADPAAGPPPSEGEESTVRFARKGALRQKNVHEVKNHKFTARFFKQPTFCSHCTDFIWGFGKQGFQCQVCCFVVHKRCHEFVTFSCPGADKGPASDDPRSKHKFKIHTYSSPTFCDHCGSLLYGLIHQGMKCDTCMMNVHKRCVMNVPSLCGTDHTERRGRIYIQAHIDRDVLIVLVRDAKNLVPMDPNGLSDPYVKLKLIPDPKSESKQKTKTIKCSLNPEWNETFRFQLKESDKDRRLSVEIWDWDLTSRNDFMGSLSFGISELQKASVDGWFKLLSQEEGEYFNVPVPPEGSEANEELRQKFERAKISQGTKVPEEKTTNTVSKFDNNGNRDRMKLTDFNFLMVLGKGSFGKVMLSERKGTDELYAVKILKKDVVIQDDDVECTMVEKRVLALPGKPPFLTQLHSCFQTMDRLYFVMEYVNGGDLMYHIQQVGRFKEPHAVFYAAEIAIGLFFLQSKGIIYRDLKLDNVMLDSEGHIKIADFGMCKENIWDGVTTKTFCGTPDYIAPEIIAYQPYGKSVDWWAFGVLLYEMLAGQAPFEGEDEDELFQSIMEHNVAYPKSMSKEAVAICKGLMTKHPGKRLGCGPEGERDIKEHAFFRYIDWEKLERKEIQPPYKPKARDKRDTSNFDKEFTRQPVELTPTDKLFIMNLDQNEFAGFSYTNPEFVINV
pIC50: −log10 of the molar value.
The entries below come with measured pIC50 values attached.

Known pIC50 results, listed for orientation:
>>> recorded_result("C[C@@H](Oc1ccc2ncc(/C=C/C(N)=O)cc2c1)c1c(Cl)ccc(F)c1Cl")
"< 4.30"
>>> recorded_result("C[C@@H](Oc1ccc2ncccc2c1)c1c(Cl)ccc(F)c1Cl")
"< 4.30"

Turning to the following molecule.
The molecule listed as C[C@@H](Oc1ccc2ncc(C3CC3C(N)=O)cc2c1)c1c(Cl)ccc(F)c1Cl (stereo partly drawn) has a reported pIC50 of < 4.30

----------
molecular target: Tyrosine-protein kinase Lck (Homo sapiens); assay: Inhibition of recombinant LCK by TR-FRET assay
Sequence (P06239 whole entry): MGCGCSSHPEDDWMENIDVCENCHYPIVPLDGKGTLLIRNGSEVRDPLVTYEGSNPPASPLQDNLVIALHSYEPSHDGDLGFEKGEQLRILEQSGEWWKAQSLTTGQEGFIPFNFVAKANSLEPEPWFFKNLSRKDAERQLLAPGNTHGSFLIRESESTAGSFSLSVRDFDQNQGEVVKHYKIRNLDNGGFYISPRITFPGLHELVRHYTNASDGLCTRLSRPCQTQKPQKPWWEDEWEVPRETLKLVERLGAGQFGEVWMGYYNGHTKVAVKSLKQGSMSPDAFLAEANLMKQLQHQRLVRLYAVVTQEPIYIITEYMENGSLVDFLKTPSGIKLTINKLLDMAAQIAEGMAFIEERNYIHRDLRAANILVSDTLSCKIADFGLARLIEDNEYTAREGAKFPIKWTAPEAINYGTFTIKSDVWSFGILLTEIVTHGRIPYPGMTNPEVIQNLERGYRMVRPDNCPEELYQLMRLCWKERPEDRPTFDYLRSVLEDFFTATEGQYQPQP
READOUT_KIND: IC50 (µM)
Respond with the bare value in µM.

The molecule listed as `C[C@@H](Oc1ccc2ncc(/C=C/C(N)=O)cc2c1)c1c(Cl)ccc(F)c1Cl` has a reported IC50 of 14

----------
The entries below come with measured pIC50 values attached.
system: MKN-45; assay: Cytotoxicity against human MKN45 cells after 96 hrs by WST8 assay; type: functional, cell-based; details: MKN-45, 96 h
Please keep in mind that pIC50 is minus log10 of the molar concentration; only the number is needed.

Known pIC50 results, listed for orientation:
>>> recorded_result("CC(Oc1ccc2ncc(/C=C/CN)cc2c1)c1c(Cl)ccc(F)c1Cl (racemic)")
5.37
>>> recorded_result("C[C@@H](Oc1ccc2ncc(C3CC3C(N)=O)cc2c1)c1c(Cl)ccc(F)c1Cl (some centres not stated)")
7.03
>>> recorded_result("CC(Oc1ccc2ncc(/C=C/C(N)=O)cc2c1)c1c(Cl)ccc(F)c1Cl (racemic)")
6.46
>>> recorded_result("CNC(=O)/C=C/c1cnc2ccc(OC(C)c3c(Cl)ccc(F)c3Cl)cc2c1 (racemic)")
6.62
>>> recorded_result("CC(Oc1ccc2ncc(CCC(N)=O)cc2c1)c1c(Cl)ccc(F)c1Cl (racemic)")
5.36
>>> recorded_result("CC(Oc1ccc2ncc(/C=C/C(=O)O)cc2c1)c1c(Cl)ccc(F)c1Cl (racemic)")
4.99

The compound listed as CC(Oc1ccc2ncc(/C=C/C(=O)N(C)C)cc2c1)c1c(Cl)ccc(F)c1Cl (racemic) has a reported pIC50 of 6.21

----------
tested on: MKN-28; assay: Cytotoxicity against human MKN28 cells after 96 hrs by WST8 assay; conditions: MKN-28, 96 h
READOUT_KIND: IC50

The compound listed as C[C@@H](Oc1ccc2ncc(C3CC3C(N)=O)cc2c1)c1c(Cl)ccc(F)c1Cl (stereo partly specified) has a reported IC50 of > 1000 nM

----------
molecular target: Insulin receptor (Homo sapiens, UniProt P06213); experiment: Inhibition of recombinant InsR by TR-FRET assay
Sequence (P06213 28-758 limits assumed): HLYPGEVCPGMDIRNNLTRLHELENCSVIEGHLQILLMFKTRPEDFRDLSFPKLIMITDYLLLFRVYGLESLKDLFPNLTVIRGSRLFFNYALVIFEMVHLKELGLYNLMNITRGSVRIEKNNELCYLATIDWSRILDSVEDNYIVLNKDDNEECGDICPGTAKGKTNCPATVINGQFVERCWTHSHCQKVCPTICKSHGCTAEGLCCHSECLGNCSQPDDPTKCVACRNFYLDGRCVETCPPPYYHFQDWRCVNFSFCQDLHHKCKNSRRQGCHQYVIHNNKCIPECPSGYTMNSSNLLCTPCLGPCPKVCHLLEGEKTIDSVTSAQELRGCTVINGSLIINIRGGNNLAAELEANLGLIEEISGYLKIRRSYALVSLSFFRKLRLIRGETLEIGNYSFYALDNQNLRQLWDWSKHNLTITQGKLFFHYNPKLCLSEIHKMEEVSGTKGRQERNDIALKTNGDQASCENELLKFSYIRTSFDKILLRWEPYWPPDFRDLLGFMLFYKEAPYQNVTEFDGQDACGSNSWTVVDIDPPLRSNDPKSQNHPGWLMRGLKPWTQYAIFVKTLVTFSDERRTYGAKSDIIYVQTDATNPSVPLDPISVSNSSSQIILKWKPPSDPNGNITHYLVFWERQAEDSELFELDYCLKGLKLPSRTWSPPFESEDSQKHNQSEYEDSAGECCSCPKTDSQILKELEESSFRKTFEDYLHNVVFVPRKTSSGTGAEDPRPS
Sequence (P06213 763-1382 limits assumed): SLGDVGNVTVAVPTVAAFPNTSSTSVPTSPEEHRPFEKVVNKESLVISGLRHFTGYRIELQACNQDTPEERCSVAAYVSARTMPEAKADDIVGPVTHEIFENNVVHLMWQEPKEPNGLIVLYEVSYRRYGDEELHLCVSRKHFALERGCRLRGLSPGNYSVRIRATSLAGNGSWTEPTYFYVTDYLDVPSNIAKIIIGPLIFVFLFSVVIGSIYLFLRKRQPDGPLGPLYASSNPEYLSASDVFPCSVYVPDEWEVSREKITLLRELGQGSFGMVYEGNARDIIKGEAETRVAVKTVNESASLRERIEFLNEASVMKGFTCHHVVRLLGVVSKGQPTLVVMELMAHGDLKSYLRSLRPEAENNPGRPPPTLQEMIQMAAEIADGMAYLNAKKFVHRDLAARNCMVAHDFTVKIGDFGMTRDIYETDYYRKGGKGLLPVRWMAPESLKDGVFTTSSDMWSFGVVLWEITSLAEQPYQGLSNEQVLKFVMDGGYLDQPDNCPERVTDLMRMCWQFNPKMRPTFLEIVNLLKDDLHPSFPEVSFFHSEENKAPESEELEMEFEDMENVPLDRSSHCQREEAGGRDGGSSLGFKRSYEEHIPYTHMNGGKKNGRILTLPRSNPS
pIC50: −log10 of the molar value.
The entries below come with measured pIC50 values attached.

>>> recorded_result("C[C@@H](Oc1ccc2ncc(C3CC3C(N)=O)cc2c1)c1c(Cl)ccc(F)c1Cl (some centres not stated)")
"< 4.30"

Turning to the following compound.
The compound listed as `C[C@@H](Oc1ccc2ncc(/C=C/C(N)=O)cc2c1)c1c(Cl)ccc(F)c1Cl` has a reported pIC50 of < 4.30

----------
target: Macrophage-stimulating protein receptor (Homo sapiens, UniProt Q04912); test: Inhibition of recombinant RON by TR-FRET assay
Sequence (Q04912 25-304 limits assumed): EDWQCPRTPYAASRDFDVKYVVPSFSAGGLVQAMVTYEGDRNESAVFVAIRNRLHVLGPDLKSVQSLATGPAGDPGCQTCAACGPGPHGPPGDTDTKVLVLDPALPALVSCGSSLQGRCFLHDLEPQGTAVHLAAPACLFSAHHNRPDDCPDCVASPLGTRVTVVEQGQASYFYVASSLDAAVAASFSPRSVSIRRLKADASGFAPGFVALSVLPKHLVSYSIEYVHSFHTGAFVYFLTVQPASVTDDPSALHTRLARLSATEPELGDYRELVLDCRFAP
Sequence (Q04912 310-1400 limits assumed): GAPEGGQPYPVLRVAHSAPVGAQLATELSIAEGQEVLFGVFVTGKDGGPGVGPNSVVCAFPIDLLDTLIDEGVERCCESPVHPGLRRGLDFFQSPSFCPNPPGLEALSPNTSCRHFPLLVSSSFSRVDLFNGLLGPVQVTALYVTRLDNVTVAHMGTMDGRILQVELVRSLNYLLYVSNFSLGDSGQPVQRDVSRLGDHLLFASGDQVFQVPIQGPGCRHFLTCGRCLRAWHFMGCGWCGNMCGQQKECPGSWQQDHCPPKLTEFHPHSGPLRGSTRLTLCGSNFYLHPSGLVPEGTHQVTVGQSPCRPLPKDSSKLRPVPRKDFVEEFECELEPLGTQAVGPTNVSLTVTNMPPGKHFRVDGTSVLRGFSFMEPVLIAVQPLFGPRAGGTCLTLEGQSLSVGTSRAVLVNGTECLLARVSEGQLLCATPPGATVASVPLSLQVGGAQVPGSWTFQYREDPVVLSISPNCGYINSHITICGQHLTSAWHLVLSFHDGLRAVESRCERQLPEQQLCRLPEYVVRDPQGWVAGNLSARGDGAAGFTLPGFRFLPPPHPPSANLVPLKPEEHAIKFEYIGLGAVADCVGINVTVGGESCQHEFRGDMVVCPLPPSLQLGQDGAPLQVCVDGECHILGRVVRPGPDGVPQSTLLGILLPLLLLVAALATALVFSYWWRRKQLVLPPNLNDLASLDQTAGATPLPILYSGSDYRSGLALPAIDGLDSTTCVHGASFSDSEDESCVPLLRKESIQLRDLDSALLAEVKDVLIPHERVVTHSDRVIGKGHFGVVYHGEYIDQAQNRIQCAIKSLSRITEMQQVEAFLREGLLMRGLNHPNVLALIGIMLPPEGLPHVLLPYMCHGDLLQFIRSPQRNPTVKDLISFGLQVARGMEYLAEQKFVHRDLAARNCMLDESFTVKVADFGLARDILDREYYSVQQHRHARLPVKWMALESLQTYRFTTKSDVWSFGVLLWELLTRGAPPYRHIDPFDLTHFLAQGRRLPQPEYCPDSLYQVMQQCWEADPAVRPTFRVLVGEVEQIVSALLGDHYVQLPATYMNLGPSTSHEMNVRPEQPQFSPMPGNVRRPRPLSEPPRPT
The entries below come with measured IC50 values attached.
Respond with the bare value in nM.

Macrophage-stimulating protein receptor (Homo sapiens, UniProt Q04912) assay, compound `C[C@@H](Oc1ccc2ncccc2c1)c1c(Cl)ccc(F)c1Cl` , recorded IC50 = 3600

Macrophage-stimulating protein receptor (Homo sapiens, UniProt Q04912) assay, compound `C[C@@H](Oc1ccc2ncc(/C=C/C(N)=O)cc2c1)c1c(Cl)ccc(F)c1Cl` , recorded IC50 = 450

Macrophage-stimulating protein receptor (Homo sapiens, UniProt Q04912) assay, compound C[C@@H](Oc1ccc2ncc(C3CC3C(N)=O)cc2c1)c1c(Cl)ccc(F)c1Cl (stereo partly drawn) , recorded IC50 = 230
